# SYSTEM TESTED: angiotensin II (A-II) receptor (Bos taurus)
# Construct: membrane fraction was prepared from bovine adrenal cortex; from tissue; host or cells: bovine adrenal cortex membrane fraction
# Sequence (P25104 whole entry): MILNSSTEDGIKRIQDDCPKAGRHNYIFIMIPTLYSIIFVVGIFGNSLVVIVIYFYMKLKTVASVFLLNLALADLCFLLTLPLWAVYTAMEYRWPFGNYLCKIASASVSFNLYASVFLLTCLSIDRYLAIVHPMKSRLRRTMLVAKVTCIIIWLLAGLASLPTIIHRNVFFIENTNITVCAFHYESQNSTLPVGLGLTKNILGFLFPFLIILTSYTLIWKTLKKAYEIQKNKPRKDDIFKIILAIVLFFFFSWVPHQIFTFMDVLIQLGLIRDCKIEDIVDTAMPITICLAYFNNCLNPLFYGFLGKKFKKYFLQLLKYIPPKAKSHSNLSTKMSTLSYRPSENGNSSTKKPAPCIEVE
# ASSAY SUMMARY: Inhibition of binding of angiotensin II to angiotensin II receptor (radioreceptor assay, 125I-A-II, bovine adrenal cortex membrane fraction)
# EXPERIMENTAL CONTEXT: 10^-7 M, room temperature, 1 h
MEASURED ATTRIBUTE: inhibition at 0.1 µM (%)

Consider the reported inhibition at 0.1 µM for these compounds:
RECORD SMILES: CCSc1nc2c(C)sc(C(=O)O)c2n1Cc1ccc(-c2ccccc2-c2nn[nH]n2)cc1
SYSTEM TESTED: angiotensin II (A-II) receptor (Bos taurus)
UOM: %
REPORTED RESULT: 18
--
RECORD SMILES: Cc1sc(C(=O)O)c2c1nc(SC(C)C)n2Cc1ccc(-c2ccccc2-c2nnn[nH]2)cc1
SYSTEM TESTED: angiotensin II (A-II) receptor (Bos taurus)
UOM: %
REPORTED RESULT: 26
--
RECORD SMILES: CCOc1nc2c(C)sc(C(=O)O)c2n1Cc1ccc(-c2ccccc2-c2nn[nH]n2)cc1
SYSTEM TESTED: angiotensin II (A-II) receptor (Bos taurus)
UOM: %
REPORTED RESULT: 39

A = CCNc1nc2c(C)sc(C(=O)O)c2n1Cc1ccc(-c2ccccc2-c2nn[nH]n2)cc1
B = CSc1nc2c(C)sc(C(=O)O)c2n1Cc1ccc(-c2ccccc2-c2nn[nH]n2)cc1
C = CCSc1nc2csc(C(=O)O)c2n1Cc1ccc(-c2ccccc2-c2nnn[nH]2)cc1
Exercise: Ranking field: inhibition at 0.1 µM; order: falling. // rank by listing labels in the order requested
Solution: C, A, B

====

# Tested on: A-II-induced pressor action
# ASSAY SUMMARY: Inhibitory effect on pressor action of angiotensin II in rats (p.o.)
# Type: in vivo, Jcl: SD rats
# EXPERIMENTAL CONTEXT: Rattus norvegicus, po; 1 mg/kg p.o.; male SD rats; A-II 100 ng/kg i.v.; read-out: Pressor Response (percent inhibition of A-II-induced pressor action)
MEASURED ATTRIBUTE: inhibition in vivo at 1 mg/kg

Here's what some known entries look like.
COMPOUND: CCSc1nc2c(C)sc(C(=O)OCOC(=O)C(C)(C)C)c2n1Cc1ccc(-c2ccccc2-c2nn[nH]n2)cc1 [compound 5]
MEASURED ATTRIBUTE: inhibition in vivo at 1 mg/kg
REPORTED RESULT: ≥ 70%

COMPOUND: CCSc1nc2c(C)sc(C(=O)O)c2n1Cc1ccc(-c2ccccc2-c2nn[nH]n2)cc1 [compound 2]
MEASURED ATTRIBUTE: inhibition in vivo at 1 mg/kg
REPORTED RESULT: ≥ 70%

COMPOUND: COc1nc2c(C)sc(C(=O)O)c2n1Cc1ccc(-c2ccccc2-c2nn[nH]n2)cc1 [compound 28]
MEASURED ATTRIBUTE: inhibition in vivo at 1 mg/kg
REPORTED RESULT: ≥ 70%

COMPOUND: CCSc1nc2csc(C(=O)O)c2n1Cc1ccc(-c2ccccc2-c2nnn[nH]2)cc1 [Working Example 22]
MEASURED ATTRIBUTE: inhibition in vivo at 1 mg/kg
REPORTED RESULT: 50 to 70%

COMPOUND: Cc1sc(C(=O)O)c2c1nc(SC(C)C)n2Cc1ccc(-c2ccccc2-c2nnn[nH]2)cc1 [Working Example 17]
MEASURED ATTRIBUTE: inhibition in vivo at 1 mg/kg
REPORTED RESULT: ≥ 70%

Exercise: Any idea what inhibition in vivo at 1 mg/kg was measured for CCCCSc1nc2c(C)sc(C(=O)O)c2n1Cc1ccc(-c2ccccc2-c2nn[nH]n2)cc1 [Working Example 18] ?
Solution: 30 to 50%

Exercise: Moving on to CSc1nc2c(C)sc(C(=O)O)c2n1Cc1ccc(-c2ccccc2-c2nn[nH]n2)cc1 [Working Example 15]
Solution: ≥ 70%

====

# System: A-II-induced pressor action
# ASSAY SUMMARY: Inhibitory effect on pressor action of angiotensin II in rats (p.o.)
# Format: in vivo, Jcl: SD rats
# EXPERIMENTAL CONTEXT: Rattus norvegicus, po; 1 mg/kg p.o.; male SD rats; A-II 100 ng/kg i.v.; read-out: Pressor Response (percent inhibition of A-II-induced pressor action)
MEASURED ATTRIBUTE: inhibition in vivo at 1 mg/kg

COMPOUND: COC(=O)c1sc(C)c2nc(SC)n(Cc3ccc(-c4ccccc4-c4nn[nH]n4)cc3)c12
inhibition in vivo at 1 mg/kg: 30 to 50%

COMPOUND: CCSc1nc2c(C)sc(C(=O)OC)c2n1Cc1ccc(-c2ccccc2-c2nn[nH]n2)cc1
inhibition in vivo at 1 mg/kg: 30 to 50%

COMPOUND: CCSc1nc2c(C)sc(C(=O)OC(C)OC(=O)OC3CCCCC3)c2n1Cc1ccc(-c2ccccc2-c2nn[nH]n2)cc1 (stereo not shown)
inhibition in vivo at 1 mg/kg: ≥ 70%

Would you kindly look at the next entry?
Exercise: Need inhibition in vivo at 1 mg/kg of COc1nc2c(C)sc(C(=O)OCOC(C)=O)c2n1Cc1ccc(-c2ccccc2-c2nn[nH]n2)cc1 , thanks.
Solution: ≥ 70%

====

# SYSTEM TESTED: angiotensin II (A-II) receptor (Bos taurus)
# Construct: membrane fraction was prepared from bovine adrenal cortex; from tissue; host or cells: bovine adrenal cortex membrane fraction
# ASSAY SUMMARY: Inhibition of binding of angiotensin II to angiotensin II receptor (radioreceptor assay, 125I-A-II, bovine adrenal cortex membrane fraction)
# EXPERIMENTAL CONTEXT: 10^-7 M, room temperature, 1 h
MEASURED ATTRIBUTE: inhibition at 0.1 µM (%)

Worked cases, answers included:
MOLECULE: CCCOc1nc2c(C)sc(C(=O)O)c2n1Cc1ccc(-c2ccccc2-c2nn[nH]n2)cc1 [compound 30]
SYSTEM TESTED: angiotensin II (A-II) receptor (Bos taurus)
inhibition at 0.1 µM / %: 33
//
MOLECULE: COc1nc2c(C)sc(C(=O)OCOC(C)=O)c2n1Cc1ccc(-c2ccccc2-c2nn[nH]n2)cc1 [compound 36]
SYSTEM TESTED: angiotensin II (A-II) receptor (Bos taurus)
inhibition at 0.1 µM / %: 73
//
MOLECULE: CCSc1nc2c(C)sc(C(=O)OCOC(=O)C(C)(C)C)c2n1Cc1ccc(-c2ccccc2-c2nn[nH]n2)cc1 [compound 5]
SYSTEM TESTED: angiotensin II (A-II) receptor (Bos taurus)
inhibition at 0.1 µM / %: 59

A = COc1nc2c(C)sc(C(=O)O)c2n1Cc1ccc(-c2ccccc2-c2nn[nH]n2)cc1 [compound 28]
B = CCSc1nc2c(C)sc(C(=O)OC(C)OC(=O)OC3CCCCC3)c2n1Cc1ccc(-c2ccccc2-c2nn[nH]n2)cc1 (stereo not shown) [compound 6]
Exercise: Given the two records A and B , choose the one whose inhibition at 0.1 µM value is lower. When you have decided, please share the label of that item.
Solution: A

a = CCCCSc1nc2c(C)sc(C(=O)O)c2n1Cc1ccc(-c2ccccc2-c2nn[nH]n2)cc1 [Working Example 18]
b = COC(=O)c1sc(C)c2nc(SC)n(Cc3ccc(-c4ccccc4-c4nn[nH]n4)cc3)c12 [compound 7]
Exercise: Form: Entry with minimum inhibition at 0.1 µM (choose one): a / b Selection: enter the item's label.
Solution: a

FYI, the data here is from patent US5463073A.
